Test system: Plasmodium falciparum
Assay: Antimalarial activity against chloroquine, pyrimethamine and mefloquine-resistant Plasmodium falciparum Dd2 assessed as parasite growth inhibition incubated for 48 hrs by SYBR green DNA fluorescent dye-binding assay
Type: functional, organism-based
Conditions: Dd2, 48 h
experimental endpoint: pEC50
Conceptually, pEC50 converts a concentration in mol/L into minus its log10.

The following molecules have reported results that may help.
[
  {
    "molecule": "CCOP(=O)(/C=C/C(NC(=O)[C@H](CC(C)C)NC(=O)[C@@H]1C[C@@H](O[C@H]2O[C@@H]3O[C@@]4(C)CC[C@H]5[C@H](C)CC[C@@H]([C@H]2C)[C@@]35OO4)CN1C(=O)OCc1ccccc1)c1ccccc1)OCC (some centres undefined)",
    "target entity": "Plasmodium falciparum",
    "pEC50": 8.26
  },
  {
    "molecule": "CCOP(=O)(/C=C/C(NC(=O)[C@H](Cc1ccccc1)NC(=O)[C@H](CO[C@H]1O[C@@H]2O[C@@]3(C)CC[C@H]4[C@H](C)CC[C@@H]([C@H]1C)[C@@]24OO3)NC(=O)OCc1ccccc1)c1ccccc1)OCC (some centres undefined)",
    "target entity": "Plasmodium falciparum",
    "pEC50": 8.72
  },
  {
    "molecule": "C[C@@H]1CC[C@H]2[C@@H](C)C(=O)O[C@@H]3O[C@@]4(C)CC[C@@H]1[C@]32OO4",
    "target entity": "Plasmodium falciparum",
    "pEC50": 7.82
  }
]

Let's switch to this molecule now.
Task item: Look up and state reported pEC50 for CCOP(=O)(/C=C/C(NC(=O)[C@H](CC(C)C)NC(=O)[C@H](CO[C@H]1O[C@@H]2O[C@@]3(C)CC[C@H]4[C@H](C)CC[C@@H]([C@H]1C)[C@@]24OO3)NC(=O)OCc1ccccc1)c1ccccc1)OCC (some centres undefined)
Reply: 8.46

Data origin: ChEMBL document CHEMBL4842313
